All figures here come from ChEMBL document CHEMBL4513216.

# Assay Notes: Toxicity liver stage against HepG2, at 10uM
# Type: cell-based
# Parameters: test concentration 10 uM, cell line HepG2-A16-CD81EGFP
# Condition Label: human, HepG2-A16-CD81EGFP cells; read-out: INHIBITION
Experimental Endpoint: cytotoxicity at 10 µM (%)

>>> df
                                    compound  value_unit  endpoint_value
 0               CC(C)(C)c1nnc(CSc2ccccn2)o1           %            5.23
 1    O=C(C1CC1)N1CCN(c2ccc(-n3cncn3)nn2)CC1           %           -4.83
 2   COCCN1CCC2(CC1)CN(Cc1cccc(C)n1)C(=O)CO2           %           -4.52
 3  O=C(NCC1CC1)c1cc2c(s1)CCN2C(=O)c1ccc(F)cc1           %            2.55
 4  Cn1ncc(Cl)c1C(=O)N1CCc2nc3sccc3c(=O)n2CC1           %           -26.7
 5  Cn1cc(-c2ncc3c(c2C(=O)O)CCN(CC2CC2)C3)cn1           %            -104
 6    CNC(=O)CN1CCOCC12CCN(C(=O)c1ccccc1)CC2           %           -82.2
 7  O=C(NCC1CC1)[C@H]1C[C@H]2CN(C(=O)NCc3ccccc3)C[C@@H]1O2           %            4.97
 8  O=C(c1ncccc1O)N1CCc2c(nc(-c3ccncc3)[nH]c2=O)C1           %          -0.918
 9  CCC1CN(C(=O)c2cc(CN(C)CCc3ccccc3)on2)CCO1 (centres undefined)           %           -4.12
10  Cc1ccccc1C1CCCN1Cc1ccc(S(=O)(=O)N(C)C)o1 (centres undefined)           %           -3.42
11  COc1ccc(C(=O)C2CCCN(Cc3cccc(F)c3)C2)c(OC)c1 (centres undefined)           %             6.4
12  O=C(CNc1cccc(S(=O)(=O)C(F)F)c1)Nc1ccccc1           %           -48.4
13  CC(C(=O)Nc1ncccn1)N1CCc2[nH]nc(C(F)(F)F)c2C1 (centres undefined)           %          -0.583
14      COc1ccc(NC(=O)NC(C)(C)c2noc(C)n2)cc1           %           -3.42
15  c1cncc(OC[C@@]23CCO[C@@H]2CCN(Cc2cccs2)C3)c1           %            14.6
16  O=C(NCCn1ccnc1)C1(c2ccc3c(c2)OCCO3)CCCC1           %           -4.38
17  CCC(=O)NC1CCCN(Cc2ccc(NC(C)=O)cc2)C1 (centres undefined)           %           -47.9
18            COCCN1CCCn2cnc(CN(C)C(C)C)c2C1           %            6.53
19  CCN1C[C@@H]2CN(S(=O)(=O)c3cccs3)C[C@@H]2C1=O           %           -2.42
20  CN(CC(O)C1CC1)C(=O)c1ccc(-c2nc(C3CC3)no2)cc1 (centres undefined)           %           -3.45
21  COC(=O)CC(NC(=O)CCCn1cccn1)c1ccc(Cl)cc1 (centres undefined)           %             4.7
22           CC(=O)NCCNC(=O)NCc1ccc(Br)cc1Cl           %            5.19
23  CCn1ncc2c1CCCC2NCc1ccc(OC)c(F)c1 (centres undefined)           %           -6.07
